Target: T1, Epitope 4 of IP-10 (amino acids 61-98), recombinant segment expressed in E. coli from pET41 (human)
T1 construct: Segment cloned EcoRI/XhoI into PET41 vector and tested as lysate of the expressing E. coli in western blot; any tags from the vector are not described; not shown: vector-coded fusion part of pET41 (GST is run as the negative control)
T1 chain: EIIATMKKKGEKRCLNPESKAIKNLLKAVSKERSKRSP
Experiment: western blot on recombinant IP-10 segments expressed in E. coli

# binder, binding result
records = [
    ("anti-IP-10 monoclonal antibody #116 (antibody, V domains shown, Mouse monoclonal antibody from a hybridoma; also called clone #116; clone #116 monoclonal antibody) VH: QVQLQQSGPELVKPGASVKISCKASGYAFSSSWMNWVKQRPGQGLEWIGRIYPGDGDTNYNGKFKGKATLTADKSSSTAYMQLSSLTSVDSAVYFCARIGNYYGSSYLYWYFDVWGAGTTVTVS VL: DIQMTQSPSSLSASLGGKVTITCKASQDIDKYIAWYQHRPGKGPSLLIHYTSTLQPGIPSRFSGSGSGKNYSFSISNLEPEDIATYYCLQYDNLLLTFGAGTKLELKR", "binds"),
    ("anti-IP-10 monoclonal antibody #88 (antibody, V domains shown, Mouse monoclonal antibody from a hybridoma; also called clone #88; clone #88 monoclonal antibody) VH: EVMLVESGGGLVKPGGSLKLSCTVSGFTFSGYAMSWVRQTPEKRLEWVASITSGGSYTSYPDNMKGRLTISRDNDRNTLDLQMSSLRSEDTAMYFCTRHSPVIASWFAYWGQGTLVHC VL: DVLMTQTPLSLPVSLGDQASISCRSSQSIVHSNGNTYLEWYLQKPGQSPKLLIYKVSNRFSGVPDRFSGSGSGTDFTLKISRVEAEDMGVYYCFQGSHVPFTFGSGTKLEIKR", "binds"),
    ("anti-IP-10 monoclonal antibody #129 (antibody, V domains shown, Mouse monoclonal antibody from a hybridoma; also called clone #129; clone #129 monoclonal antibody) VH: QVQLKQSGPGLVQPSQSLSITCTVSGFSLTSYGVHWVRQSPGKGLEWLGVIWSGGSTDYNAAFISRLSISKDNSKSQVFFKMNSLQANDTAIYYCARNWGAMDYWGQGTSVTVSS VL: DIVMTQSPSSLSVSAGEKVTMSCKSSQSLLNSGNQKNYLAWYQQKPGQPPKLLIYGASTRESGVPDRFTGSGSGTDFTLTISSVQAEDLAVYYCQNDHSYPLTFGAGTKLELKR", "binds"),
]
